Assay: Potentiometric (pH-metric) LogP and logD profile
Assay type: physicochemical
Conditions: octanol/water; pH 12.000

Compound | logD
COCCOc1cccc([C@@H]2CCN(CCn3cccc3)[C@H](C)[C@H]2COc2ccc3c(c2)C(=O)NC3)c1 [crystalline Form I] | 3.81

* * *

Assay: Approximate solubility by solvent addition technique
Type: physicochemical
Details: acetonitrile, 20 °C, organic solvent or mixture, thermodynamic from solid, heating to 40° C. between solvent aliquots

Compound | solubility
COCCOc1cccc([C@@H]2CCN(CCn3cccc3)[C@H](C)[C@H]2COc2ccc3c(c2)C(=O)NC3)c1 [free base] | > 200 mg/mL

* * *

Test: Approximate solubility by solvent addition technique
Type: physicochemical
Conditions: methanol:water 77:23 v/v, 20 °C, aqueous with cosolvent or surfactant or cyclodextrin, thermodynamic from solid, Methanol:Water 77:23 v/v, heating to 40° C. between solvent aliquots
Measured Property: solubility

Compound | Experimental Result
COCCOc1cccc([C@@H]2CCN(CCn3cccc3)[C@H](C)[C@H]2COc2ccc3c(c2)C(=O)NC3)c1 [free base] | 50 mg/mL
